src = patent US20220204510A1

test: Pharmacokinetic study in Balb/c mice by oral administration and intravenous injection
Type: in vivo
run_parameters: mouse, plasma; IV (1 mg/kg), Balb/c female mice; read-out: Area under the plasma concentration-time curve AUC0-24 h
Please provide measured AUC(0-t) for the entries that follow.
Answers are plain numbers, in µM·h.

| molecular_string | unit_name | AUC(0-t) |
| --- | --- | --- |
| C[C@]1(NC(=O)C(=O)c2c(Cl)c(C(=O)Nc3ccc(F)c(F)c3)c3n2CCC3)CC[C@H](CC(=O)O)CC1 | µM·h | 0.617 |

Please examine the following record next.
Q. For "C[C@]1(NC(=O)C(=O)c2c(Cl)c(C(=O)Nc3cc(F)c(F)c(F)c3)c3n2CCC3)CC[C@H](CC(=O)O)CC1" , write its AUC(0-t).
A. 1.49
